PROCEDURE SUMMARY: chemical genetic growth profiling, strain panel (AID 1159580);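 also: tested at 20 µM; growth read once vehicle control cultures reached saturation at 30 °C; 1 = growth at the plate median or of vehicle wells; lower values mean less growth of the strain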
CONDITION LABEL: S. cerevisiae deletion strains, growth OD, locus YIL147C, strain SLN1, hits give low values
Out of some 5,500 compounds screened, about 2,000 (36%) were called active. Another 18% or so got no clear call; they are omitted. This is one part of the list.
MEASURED ENDPOINT: normalized growth
Please give the numeric answer without any surrounding text.

The recorded normalized growth for entry `O=S(=O)(NCc1ccc(C(F)(F)F)cc1)c1cc(Br)c(Br)s1` equals 0.98

According to the records, this molecule `O=S(=O)(Nc1cc(Cl)c(Cl)cc1Cl)c1cc(C(F)(F)F)cc(C(F)(F)F)c1` displays normalized growth of 0.963

For this molecule ( Cc1ccc(NC(=S)C(C#N)C(=O)N2CCOCC2)c(C)c1 (stereo unspecified) ), measured normalized growth is 0.983

---
Query `O=C(NNc1ccccc1)c1cc(-c2ccc(Cl)cc2)oc1C(F)(F)F` yields normalized growth of 0.96

Summary for this molecule, `Clc1cc(Cl)cc(C=NCc2ccccc2)c1` : normalized growth is 0.947

Lab note: `Cc1c(S(=O)(=O)Nc2cccc([N+](=O)[O-])c2)sc2ccc(Cl)cc12` gave normalized growth of 0.976

The molecule `COc1ccc2c(c1)CCc1sc(NC(=O)c3ccco3)nc1-2` showed normalized growth equal to 0.957

`Clc1ccc(-c2cnc(Nc3cc(Cl)cc(Cl)c3)s2)cc1` has a reported normalized growth of 0.961

Looking up `Cn1nccc1-c1cc(Cl)cc(Cl)c1O` , I see its normalized growth listed as 0.96

Summary for this molecule, `O=C(Nc1ccncc1)c1cc(-c2ccccc2)oc1C(F)(F)F` : normalized growth is 0.994

The molecule `N/C(=N/O)c1ccc(Oc2ccc(C3SCCS3)cc2)c([N+](=O)[O-])c1` showed normalized growth equal to 0.996
